B1: library; numbered along this chain (parent)
chain: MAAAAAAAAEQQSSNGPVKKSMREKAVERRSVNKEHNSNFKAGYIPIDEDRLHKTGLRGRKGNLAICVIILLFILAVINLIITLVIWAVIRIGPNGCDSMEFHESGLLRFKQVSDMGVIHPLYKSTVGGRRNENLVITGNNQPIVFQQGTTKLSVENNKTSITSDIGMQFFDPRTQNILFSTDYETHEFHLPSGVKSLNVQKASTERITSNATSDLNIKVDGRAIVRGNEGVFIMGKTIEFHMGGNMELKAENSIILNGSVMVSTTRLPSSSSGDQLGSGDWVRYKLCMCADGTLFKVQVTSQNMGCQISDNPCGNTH

variants of: B1; experiment: SGCB cell-surface expression functional score (HA stain, bin4 vs bin1, normalised to synonymous) (log10 ratio); higher = more cell-surface SGCB (functional)
property: SGCB cell-surface expression functional score (log10)

Solved entries (count: 5):
>>> result("N134I")
-0.65
>>> result("K159L")
0.31
>>> result("T160Y")
-1.13
>>> result("C97P")
-0.47
>>> result("A6S")
0.25

Continue with the variant presented below.
Using the record for A88D , state its measured SGCB cell-surface expression functional score (log10). 0.41
